Reported pKi values for a set of compounds
# Experimental System: Transmembrane protease serine 6 (Homo sapiens)
# Sequence (Q8IU80 whole entry): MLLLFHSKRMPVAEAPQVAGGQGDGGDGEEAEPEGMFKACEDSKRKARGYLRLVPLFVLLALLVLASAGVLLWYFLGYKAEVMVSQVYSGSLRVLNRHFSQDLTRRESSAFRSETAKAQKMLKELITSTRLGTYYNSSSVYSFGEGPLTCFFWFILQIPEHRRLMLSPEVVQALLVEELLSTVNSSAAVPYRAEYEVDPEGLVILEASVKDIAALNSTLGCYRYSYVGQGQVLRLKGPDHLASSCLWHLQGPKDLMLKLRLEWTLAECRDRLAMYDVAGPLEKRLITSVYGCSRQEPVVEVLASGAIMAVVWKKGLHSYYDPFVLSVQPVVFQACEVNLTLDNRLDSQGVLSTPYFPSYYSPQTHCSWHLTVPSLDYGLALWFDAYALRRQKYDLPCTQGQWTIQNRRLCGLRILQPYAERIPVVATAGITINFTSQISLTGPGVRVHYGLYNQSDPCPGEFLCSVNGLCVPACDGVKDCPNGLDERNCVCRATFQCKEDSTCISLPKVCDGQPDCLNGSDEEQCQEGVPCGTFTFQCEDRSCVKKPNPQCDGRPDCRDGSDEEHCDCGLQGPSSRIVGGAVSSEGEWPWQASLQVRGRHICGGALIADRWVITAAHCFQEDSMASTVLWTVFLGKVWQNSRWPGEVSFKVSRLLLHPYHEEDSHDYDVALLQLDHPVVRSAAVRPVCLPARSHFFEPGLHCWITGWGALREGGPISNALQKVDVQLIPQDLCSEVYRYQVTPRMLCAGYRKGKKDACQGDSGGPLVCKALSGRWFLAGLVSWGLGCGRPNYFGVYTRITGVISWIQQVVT
# Test Method Notes: Binding affinity to recombinant human TMPRSS6 using Boc-QAR-AMC as substrate assessed as inhibition constant by fluorescence based analysis
pKi: −log10 of the molar value.
Measured Metric: pKi

> print(dat)
                            molecular.string  reported.result
 1  CC[C@H](C)[C@H](NC(=O)[C@H](Cc1cscn1)NC(=O)CCc1ccccc1)C(=O)N[C@@H](CCCNC(=N)N)C(=O)c1nc2ccccc2s1             8.92
 2  N=C(N)NCCC[C@H](NC(=O)[C@H](CCC1CCCCC1)NC(=O)[C@H](Cc1cscn1)NC(=O)CCc1ccccc1)C(=O)c1nc2ccccc2s1             8.08
 3  N=C(N)NCCC[C@H](NC(=O)[C@@H](NC(=O)[C@H](Cc1cscn1)NC(=O)CCc1ccccc1)C1CCCCC1)C(=O)c1nc2ccccc2s1             8.47
 4  N=C(N)NCCC[C@H](NC(=O)[C@H](Cc1ccc2ccccc2c1)NC(=O)[C@H](Cc1cscn1)NC(=O)CCc1ccccc1)C(=O)c1nc2ccccc2s1             8.10
 5  N=C(N)NCCC[C@H](NC(=O)[C@H](CCc1ccccc1)NC(=O)[C@H](Cc1cscn1)NC(=O)CCc1ccccc1)C(=O)c1nc2ccccc2s1             8.66
 6  CC(C)(C)C[C@H](NC(=O)[C@H](Cc1cscn1)NC(=O)CCc1ccccc1)C(=O)N[C@@H](CCCNC(=N)N)C(=O)c1nc2ccccc2s1             8.34
 7  N=C(N)NCCC[C@H](NC(=O)[C@H](Cc1cccc2ccccc12)NC(=O)[C@H](Cc1cscn1)NC(=O)CCc1ccccc1)C(=O)c1nc2ccccc2s1             8.43
 8  N=C(N)NCCC[C@H](NC(=O)[C@H](Cc1ccccc1)NC(=O)[C@H](Cc1cscn1)NC(=O)CCc1ccccc1)C(=O)c1nc2ccccc2s1             8.85
 9  N=C(N)NCCC[C@H](NC(=O)[C@@H](NC(=O)[C@H](Cc1cscn1)NC(=O)CCc1ccccc1)c1ccccc1)C(=O)c1nc2ccccc2s1             7.90
10  CC[C@@H](C)[C@H](NC(=O)[C@H](Cc1cscn1)NC(=O)CCc1ccccc1)C(=O)N[C@@H](CCCNC(=N)N)C(=O)c1nc2ccccc2s1             8.85
11  CC(C)[C@H](NC(=O)[C@H](Cc1cscn1)NC(=O)CCc1ccccc1)C(=O)N[C@@H](CCCNC(=N)N)C(=O)c1nc2ccccc2s1             8.92
12  N=C(N)NCCC[C@H](NC(=O)[C@H](CC1CCCCC1)NC(=O)[C@H](Cc1cscn1)NC(=O)CCc1ccccc1)C(=O)c1nc2ccccc2s1             8.41
13  N=C(N)NCCC[C@H](NC(=O)[C@H](Cc1ccc(OCc2ccccc2)cc1)NC(=O)[C@H](Cc1cscn1)NC(=O)CCc1ccccc1)C(=O)c1nc2ccccc2s1             8.25
14  CC(C)C[C@H](NC(=O)[C@H](Cc1cscn1)NC(=O)CCc1ccccc1)C(=O)N[C@@H](CCCNC(=N)N)C(=O)c1nc2ccccc2s1             8.82
